system: Serine/threonine-protein kinase B-raf (Homo sapiens), P15056 [V600E]; settings: at 0.1 µM;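 note: mean inhibition of the BRAF V599E mutant, from GSK PKIS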
Sequence (P15056 whole entry V600E): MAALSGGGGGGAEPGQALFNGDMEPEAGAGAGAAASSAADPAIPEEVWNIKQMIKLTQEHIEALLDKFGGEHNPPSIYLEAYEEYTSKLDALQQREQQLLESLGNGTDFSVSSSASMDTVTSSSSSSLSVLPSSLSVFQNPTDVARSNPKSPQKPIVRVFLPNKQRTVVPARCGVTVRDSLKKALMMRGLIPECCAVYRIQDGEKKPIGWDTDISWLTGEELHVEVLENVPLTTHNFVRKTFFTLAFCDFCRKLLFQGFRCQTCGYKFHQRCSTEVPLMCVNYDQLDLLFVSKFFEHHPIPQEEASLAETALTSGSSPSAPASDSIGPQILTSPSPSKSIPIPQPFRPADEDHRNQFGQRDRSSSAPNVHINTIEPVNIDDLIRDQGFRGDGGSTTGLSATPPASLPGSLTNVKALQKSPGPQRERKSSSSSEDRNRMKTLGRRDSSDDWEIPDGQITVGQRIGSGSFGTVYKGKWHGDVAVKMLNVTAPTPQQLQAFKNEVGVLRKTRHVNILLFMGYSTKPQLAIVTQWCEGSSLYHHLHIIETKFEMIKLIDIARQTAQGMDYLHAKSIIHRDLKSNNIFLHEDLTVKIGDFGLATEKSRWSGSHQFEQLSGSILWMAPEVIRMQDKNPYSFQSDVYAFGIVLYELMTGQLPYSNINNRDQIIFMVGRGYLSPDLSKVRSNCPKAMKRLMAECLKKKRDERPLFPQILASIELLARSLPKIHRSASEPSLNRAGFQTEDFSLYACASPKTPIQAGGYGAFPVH
Description: GSK_PKIS: BRAF (V599E mutant) mean inhibition at 0.1 uM [Nanosyn]
Each item that follows carries a reported inhibition.
Give the number first and the unit second.

Recorded results for 6 compounds are shown here.
CNC(=O)c1ncccc1Nc1nc(Nc2cc3c(cc2OC)CCCN3C(=O)CN(C)C)nc2[nH]ccc12 ... 5.35%
O=C(O[C@H]1CN[C@H](C#Cc2cc3ncnc(Nc4ccc5c(ccn5Cc5cc(F)ccc5F)c4)c3s2)C1)N1CCOCC1 ... 6.11%
COc1ccccc1-c1cc(/C=C2\C(=O)Nc3ncc(Br)cc32)cc(Br)c1O ... 7.25%
COc1ccc2ncn(-c3cc(O[C@H](C)c4ccccc4C(F)(F)F)c(C(N)=O)s3)c2c1 ... -1.03%
Fc1cccc(COc2ccc(Nc3ncncc3C#Cc3ccccc3)cc2Cl)c1 ... 6.66%
CCOc1ccc2c(-c3ccnc(Nc4cc(OC)cc(C(F)(F)F)c4)n3)cnn2n1 ... 0.43%

Alright, here's another compound for you.
# input Identify the reported inhibition for the following entry. CS(=O)(=O)CCNCc1ccc(-c2ccc3ncnc(Nc4ccc(OCc5ccccc5)cc4)c3c2)o1
# output 3.8%

###

target: Vascular endothelial growth factor receptor 1 (Homo sapiens) (UniProt P17948); conditions: at 0.1 µM;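 note: values are mean percent inhibition of FLT1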
Sequence (P17948 whole entry): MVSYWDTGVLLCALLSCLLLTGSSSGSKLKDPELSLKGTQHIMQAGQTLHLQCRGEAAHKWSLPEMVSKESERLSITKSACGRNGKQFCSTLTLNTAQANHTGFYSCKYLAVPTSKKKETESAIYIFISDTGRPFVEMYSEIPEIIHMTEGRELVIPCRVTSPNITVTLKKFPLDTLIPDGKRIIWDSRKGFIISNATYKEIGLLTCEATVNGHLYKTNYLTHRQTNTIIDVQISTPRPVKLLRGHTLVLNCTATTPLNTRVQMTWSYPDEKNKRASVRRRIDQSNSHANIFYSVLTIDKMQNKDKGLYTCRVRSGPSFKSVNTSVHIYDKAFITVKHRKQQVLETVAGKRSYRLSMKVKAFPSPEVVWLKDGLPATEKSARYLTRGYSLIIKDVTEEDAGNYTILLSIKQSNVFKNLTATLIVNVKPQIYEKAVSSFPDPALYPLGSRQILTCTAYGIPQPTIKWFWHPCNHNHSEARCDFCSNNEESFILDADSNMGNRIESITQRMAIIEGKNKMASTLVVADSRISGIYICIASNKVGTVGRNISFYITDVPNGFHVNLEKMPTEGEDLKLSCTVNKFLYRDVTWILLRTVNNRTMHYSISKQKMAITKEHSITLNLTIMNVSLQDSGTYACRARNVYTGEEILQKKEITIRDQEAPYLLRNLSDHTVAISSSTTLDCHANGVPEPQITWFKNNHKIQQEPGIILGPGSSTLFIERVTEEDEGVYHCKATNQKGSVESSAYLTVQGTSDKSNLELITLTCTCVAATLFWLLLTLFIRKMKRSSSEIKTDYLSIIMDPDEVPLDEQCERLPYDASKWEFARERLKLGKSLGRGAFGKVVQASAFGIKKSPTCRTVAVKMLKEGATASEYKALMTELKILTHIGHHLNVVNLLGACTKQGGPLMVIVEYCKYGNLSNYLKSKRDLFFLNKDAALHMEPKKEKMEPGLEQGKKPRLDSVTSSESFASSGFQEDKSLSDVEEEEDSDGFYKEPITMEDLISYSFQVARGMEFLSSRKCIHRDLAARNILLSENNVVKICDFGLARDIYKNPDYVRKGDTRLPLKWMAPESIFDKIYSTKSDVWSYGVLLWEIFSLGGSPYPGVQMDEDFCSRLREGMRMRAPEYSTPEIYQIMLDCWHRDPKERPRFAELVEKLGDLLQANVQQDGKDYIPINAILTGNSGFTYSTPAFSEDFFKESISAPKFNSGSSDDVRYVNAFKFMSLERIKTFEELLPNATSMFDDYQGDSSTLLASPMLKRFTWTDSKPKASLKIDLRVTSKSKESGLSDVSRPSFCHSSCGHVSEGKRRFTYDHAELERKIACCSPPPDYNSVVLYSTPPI
measurement.name: inhibition (%)
Please give a number only; it is taken to be in %.

Recorded results for 3 compounds are shown here.
CC1=C(C(=O)Nc2ccc3[nH]nc(C)c3c2)C(c2ccc(C(F)(F)F)cc2)CC(=O)N1 (stereo not given) ... 1.04
COc1cc(N2CCN(C(C)C)CC2)ccc1Nc1nc(Nc2cccc(F)c2C(=O)O)c2cc[nH]c2n1 ... 1.38
O=C(Nc1n[nH]c2nnc(-c3cccnc3)cc12)C1CC1 ... 0.7

# input Identify the reported inhibition for the following entry. CS(=O)(=O)CCNCc1ccc(-c2ccc3ncnc(Nc4ccc(OCc5cccc(C(F)(F)F)c5)cc4)c3c2)o1
# output 1.21

# input Identify the reported inhibition for the following entry. CCOc1ccc2c(-c3ccnc(Nc4cc(OC)cc(C(F)(F)F)c4)n3)cnn2n1
# output 1.04

###

Each item that follows carries a reported inhibition.
biological target: ALK tyrosine kinase receptor (Homo sapiens) (UniProt Q9UM73); conditions: at 1 µM;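 note: values are mean percent inhibition of ALK, screened as part of the GSK PKIS panel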
Sequence (Q9UM73 19-1620 limits assumed): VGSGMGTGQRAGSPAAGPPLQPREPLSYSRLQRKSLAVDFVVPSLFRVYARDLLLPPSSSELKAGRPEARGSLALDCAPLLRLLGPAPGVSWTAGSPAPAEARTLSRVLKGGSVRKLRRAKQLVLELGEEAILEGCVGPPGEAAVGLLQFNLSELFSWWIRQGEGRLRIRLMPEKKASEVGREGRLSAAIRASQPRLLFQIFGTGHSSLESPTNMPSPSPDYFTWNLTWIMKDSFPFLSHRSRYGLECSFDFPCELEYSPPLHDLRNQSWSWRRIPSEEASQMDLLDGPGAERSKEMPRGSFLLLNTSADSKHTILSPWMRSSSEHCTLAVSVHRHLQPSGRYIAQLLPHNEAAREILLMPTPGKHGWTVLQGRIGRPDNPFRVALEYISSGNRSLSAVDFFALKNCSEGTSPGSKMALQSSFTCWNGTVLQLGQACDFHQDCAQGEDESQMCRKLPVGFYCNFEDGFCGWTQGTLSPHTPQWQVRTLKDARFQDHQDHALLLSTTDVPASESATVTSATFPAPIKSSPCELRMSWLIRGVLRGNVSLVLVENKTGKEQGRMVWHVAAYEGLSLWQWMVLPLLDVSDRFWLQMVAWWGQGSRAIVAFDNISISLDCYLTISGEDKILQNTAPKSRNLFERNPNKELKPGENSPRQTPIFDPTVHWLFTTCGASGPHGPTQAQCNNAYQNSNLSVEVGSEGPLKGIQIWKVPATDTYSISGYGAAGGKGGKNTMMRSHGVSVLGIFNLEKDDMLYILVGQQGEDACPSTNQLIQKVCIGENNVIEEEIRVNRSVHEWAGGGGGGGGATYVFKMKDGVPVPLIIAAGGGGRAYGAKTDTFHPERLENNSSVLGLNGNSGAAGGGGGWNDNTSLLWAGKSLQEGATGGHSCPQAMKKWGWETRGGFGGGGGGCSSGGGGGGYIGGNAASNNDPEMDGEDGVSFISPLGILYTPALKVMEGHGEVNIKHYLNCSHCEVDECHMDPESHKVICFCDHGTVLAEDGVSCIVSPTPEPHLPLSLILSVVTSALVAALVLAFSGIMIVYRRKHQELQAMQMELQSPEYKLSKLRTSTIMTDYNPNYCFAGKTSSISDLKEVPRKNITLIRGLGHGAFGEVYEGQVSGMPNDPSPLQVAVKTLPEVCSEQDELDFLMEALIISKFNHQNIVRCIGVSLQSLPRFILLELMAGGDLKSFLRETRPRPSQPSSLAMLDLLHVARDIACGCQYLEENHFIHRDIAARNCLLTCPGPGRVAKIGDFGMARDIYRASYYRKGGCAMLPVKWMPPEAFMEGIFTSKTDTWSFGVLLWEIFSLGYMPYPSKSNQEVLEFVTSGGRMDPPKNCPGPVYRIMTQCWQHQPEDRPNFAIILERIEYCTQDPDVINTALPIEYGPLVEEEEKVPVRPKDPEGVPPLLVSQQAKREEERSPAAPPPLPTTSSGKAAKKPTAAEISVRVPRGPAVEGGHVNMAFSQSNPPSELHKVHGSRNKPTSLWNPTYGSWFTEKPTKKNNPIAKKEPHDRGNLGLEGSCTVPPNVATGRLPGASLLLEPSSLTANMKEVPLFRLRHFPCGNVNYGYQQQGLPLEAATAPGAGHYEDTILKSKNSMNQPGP
Please give a number only; it is taken to be in %.

COc1c(C(N)=O)cc(-c2ccc(Cl)cc2)cc1-c1ccc(S(N)(=O)=O)cc1 ... 7.26

# input State recorded inhibition with ALK tyrosine kinase receptor (Homo sapiens) (UniProt Q9UM73), entry c1ccc(-c2n[nH]cc2-c2ccnc(-c3ccc(OCCn4ccnc4)cc3)c2)nc1 , no comment.
# output 3.68

# input State recorded inhibition with ALK tyrosine kinase receptor (Homo sapiens) (UniProt Q9UM73), entry Cn1c(-c2nonc2N)nc2cnccc21 , no comment.
# output 3.93

# input State recorded inhibition with ALK tyrosine kinase receptor (Homo sapiens) (UniProt Q9UM73), entry CCOc1ccc2c(-c3ccnc(Nc4cc(OC)cc(C(F)(F)F)c4)n3)cnn2n1 , no comment.
# output 1.27

# input State recorded inhibition with ALK tyrosine kinase receptor (Homo sapiens) (UniProt Q9UM73), entry O=C(O[C@H]1CN[C@H](C#Cc2cc3ncnc(Nc4ccc5c(cnn5Cc5ccccc5)c4)c3s2)C1)N1CCOCC1 , no comment.
# output 0.05

# input State recorded inhibition with ALK tyrosine kinase receptor (Homo sapiens) (UniProt Q9UM73), entry COc1ccc(Nc2ncc(-c3ccccc3)o2)cc1OC , no comment.
# output 4.78

###

tested on: Mast/stem cell growth factor receptor Kit (Homo sapiens), P10721 [D816V]; details: at 0.1 µM
Sequence (P10721 whole entry D816V): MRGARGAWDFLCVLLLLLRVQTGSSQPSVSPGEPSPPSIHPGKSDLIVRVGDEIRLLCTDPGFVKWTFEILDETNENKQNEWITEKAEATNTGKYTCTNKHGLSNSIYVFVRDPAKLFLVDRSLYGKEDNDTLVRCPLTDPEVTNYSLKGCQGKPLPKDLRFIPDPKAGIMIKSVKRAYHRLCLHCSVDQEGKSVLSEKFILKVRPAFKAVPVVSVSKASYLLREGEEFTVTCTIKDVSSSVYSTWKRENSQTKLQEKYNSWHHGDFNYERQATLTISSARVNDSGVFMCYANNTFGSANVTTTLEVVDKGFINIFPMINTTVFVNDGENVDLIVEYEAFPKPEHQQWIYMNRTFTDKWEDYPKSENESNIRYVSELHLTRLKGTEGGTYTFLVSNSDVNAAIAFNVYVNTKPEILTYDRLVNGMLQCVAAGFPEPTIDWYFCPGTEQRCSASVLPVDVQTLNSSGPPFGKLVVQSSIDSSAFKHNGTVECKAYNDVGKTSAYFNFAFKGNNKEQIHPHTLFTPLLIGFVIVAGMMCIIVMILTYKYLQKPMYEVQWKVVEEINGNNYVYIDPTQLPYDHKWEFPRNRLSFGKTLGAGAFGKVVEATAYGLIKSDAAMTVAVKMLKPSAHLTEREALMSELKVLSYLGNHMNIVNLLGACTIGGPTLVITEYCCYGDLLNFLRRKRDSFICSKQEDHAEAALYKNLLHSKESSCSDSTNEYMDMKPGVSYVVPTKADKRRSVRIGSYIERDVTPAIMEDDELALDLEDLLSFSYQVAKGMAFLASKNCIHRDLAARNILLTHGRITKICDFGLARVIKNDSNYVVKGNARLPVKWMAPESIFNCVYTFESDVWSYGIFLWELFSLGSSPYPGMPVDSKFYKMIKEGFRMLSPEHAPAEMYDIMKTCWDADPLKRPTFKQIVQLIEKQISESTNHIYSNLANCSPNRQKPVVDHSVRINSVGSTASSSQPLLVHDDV
measurement.name: inhibition (%)
Please give a number only; it is taken to be in %.

CNC(=O)c1ncccc1Nc1nc(Nc2cc3c(cc2OC)CCCN3C(=O)CN(C)C)nc2[nH]ccc12 ... 1.27
CNC(=O)c1sc(-n2cnc3cc(OC)c(OC)cc32)cc1OCc1ccccc1C(F)(F)F ... 2.29
CS(=O)(=O)CCNCc1ccc(-c2ccc3ncnc(Nc4ccc(OCc5cccc(C(F)(F)F)c5)cc4)c3c2)o1 ... 2.25
COc1ccc2ncn(-c3cc(O[C@H](C)c4ccccc4C(F)(F)F)c(C(N)=O)s3)c2c1 ... -1.17
COC(=O)Nc1nc2ccc(Oc3ccc(NC(=O)Nc4cc(C(F)(F)F)ccc4F)cc3)cc2s1 ... -1.16

Alright, here's another molecule for you.
# input State recorded inhibition with Mast/stem cell growth factor receptor Kit (Homo sapiens), P10721 [D816V], entry Fc1ccc(Nc2nccc(-c3c(-c4ccc(C(F)(F)F)cc4)nn4ncccc34)n2)cc1F , no comment.
# output 2.15

###

Each item that follows carries a reported inhibition.
molecular target: Protein kinase C alpha type (Homo sapiens) (UniProt P17252); conditions: at 1 µM;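 note: reported value is the mean inhibition, measured within the GSK PKIS screening panel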
Please give a number only; it is taken to be in %.

# input State recorded inhibition with Protein kinase C alpha type (Homo sapiens) (UniProt P17252), entry CC1(C)CC(n2cnc(-c3ccc(F)cc3)c2-c2ccnc(N)n2)CC(C)(C)N1 , no comment.
# output 2.63

###

Each item that follows carries a reported inhibition.
molecular target: Serine/threonine-protein kinase BRSK2 (Homo sapiens); conditions: at 0.1 µM;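 note: values are mean inhibition of BRSK2 from the GSK PKIS screening dataset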
Please give a number only; it is taken to be in %.

CNC(=O)c1sc(-n2cnc3cc(OC)c(OC)cc32)cc1OCc1ccccc1C(F)(F)F ... 4.29
CN1CCC(n2cnc(-c3ccc(F)cc3)c2-c2ccnc(NCCO)n2)CC1 ... 2.24
COC(=O)Nc1nc2cc(Oc3ccc(NC(=O)Nc4ccccc4)cc3)ccc2[nH]1 ... 0.79
NC(=O)c1ccc2c(-c3ccnc(NCCCO)n3)c(-c3ccc(F)cc3)nn2c1 ... 2.27

# input Identify the reported inhibition for the following entry. O=C(O[C@H]1CN[C@H](C#Cc2cc3ncnc(Nc4ccc(OCc5cccc(F)c5)c(Cl)c4)c3s2)C1)N1CCOCC1
# output 2.06

###

target: Tyrosine-protein kinase Yes (Homo sapiens); details: at 1 µM;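 note: values are mean percent inhibition of YES kinase activity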
Lab note: compare inhibition against 20%. Equal or greater, write Satisfied. Smaller, write Not satisfied.

Look over these answered cases.
O=C1Nc2ccccc2/C1=C1\CCc2cc(O)ccc21 ... Not satisfied
CCn1c(-c2nonc2N)nc2cncc(C(=O)NCCNC)c21 ... Not satisfied
CCS(=O)(=O)c1ccc(OC)c(Nc2ncc(-c3cccc(C(C)=O)c3)o2)c1 ... Satisfied
Cc1ccc(-c2cc3c(NC(=O)C4CC4)ncnc3o2)cc1 ... Satisfied
O=C(O[C@H]1CN[C@H](C#Cc2cc3ncnc(Nc4ccc(OCc5cccc(F)c5)c(Cl)c4)c3s2)C1)N1CCOCC1 ... Not satisfied
CC1=C(C(=O)Nc2ccc3[nH]nc(C)c3c2)C(c2ccc(C(F)(F)F)cc2)CC(=O)N1 (centres undefined) ... Not satisfied
COc1ccc(-c2nn3ncccc3c2-c2ccnc(Nc3ccc(F)c(F)c3)n2)cc1 ... Satisfied
CS(=O)(=O)Nc1ccc(-c2ccc3c(NC(=O)C4CC4)n[nH]c3c2)cc1 ... Not satisfied

# input Identify whether the reported inhibition of the following compound is 20% or greater: CS(=O)(=O)CCNCc1ccc(-c2ccc3ncnc(Nc4ccc(OCc5ccccc5)cc4)c3c2)o1
# output Satisfied

# input Identify whether the reported inhibition of the following compound is 20% or greater: CNC(=O)c1ncccc1Nc1nc(Nc2cc3c(cc2OC)CCCN3C(=O)CN(C)C)nc2[nH]ccc12
# output Not satisfied

# input Identify whether the reported inhibition of the following compound is 20% or greater: NS(=O)(=O)c1ccc(N/N=C2\C(=O)Nc3cccc(CCc4ccncc4)c32)cc1
# output Not satisfied

# input Identify whether the reported inhibition of the following compound is 20% or greater: CNC(=O)c1sc(-n2cnc3cc(OC)c(OC)cc32)cc1OCc1ccccc1C(F)(F)F
# output Not satisfied

# input Identify whether the reported inhibition of the following compound is 20% or greater: COc1cccc(-n2ncc3c(N/N=C/c4ccc(C(=O)NCCN(C)C)cc4)ncnc32)c1
# output Satisfied

# input Identify whether the reported inhibition of the following compound is 20% or greater: N#Cc1cccc(Nc2ncc(-c3ccccc3)o2)c1
# output Not satisfied

# input Identify whether the reported inhibition of the following compound is 20% or greater: CS(=O)(=O)CCNCc1ccoc1-c1ccc2ncnc(Nc3ccc(OCc4ccccc4)cc3)c2c1
# output Satisfied

# input Identify whether the reported inhibition of the following compound is 20% or greater: O=C(O[C@H]1CN[C@H](C#Cc2cc3ncnc(Nc4ccc5c(cnn5Cc5ccccc5)c4)c3s2)C1)N1CCOCC1
# output Satisfied

# input Identify whether the reported inhibition of the following compound is 20% or greater: CCOc1ccc2c(-c3ccnc(Nc4cc(OC)cc(C(F)(F)F)c4)n3)cnn2n1
# output Not satisfied

# input Identify whether the reported inhibition of the following compound is 20% or greater: Fc1ccc(Nc2nccc(-c3c(-c4ccc(C(F)(F)F)cc4)nn4ncccc34)n2)cc1F
# output Not satisfied

# input Identify whether the reported inhibition of the following compound is 20% or greater: NS(=O)(=O)c1ccc(N/N=C2\C(=O)Nc3ccc(C(=O)NCc4ccncc4)cc32)cc1
# output Not satisfied

Just for reference, ChEMBL document CHEMBL1961873 is where these values come from.
